System under test: WDR5 protein (Homo sapiens (Human), UniProt P61964)
Assay protocol: Surface Plasmon Resonance (SPR) assay
Format: binding
Reported conditions: SPR, Table 2; read-out: WDR5 binding affinity SPR (KD)
pKd: −log10 of the molar value.
Reported property: pKd

The examples below pair each entry with its known result.
IN: Identify pKd associated with the molecule Cc1cccc(C(=O)Nc2cc(-c3cc(CN4CCOCC4)ccc3F)ccc2N2CCN(C)CC2)c1
OUT: 5.30

IN: Identify pKd associated with the molecule C[C@@H]1CN(c2ccc(-c3cc(C(N)=O)c(F)cc3F)cc2NC(=O)c2c[nH]c(=O)cc2C(F)(F)F)C[C@H](C)N1C
OUT: 8.05

P. CN1CCCN(c2ccc(-c3cc(CN4CCOCC4)ccc3F)cc2NC(=O)c2c[nH]c(=O)cc2C(F)(F)F)CC1
Q. CN1CCN(c2ccc(-c3cc(C(=O)N(C)C4CCCCC4)ccc3F)cc2NC(=O)c2c[nH]c(=O)cc2C(F)(F)F)CC1
R. CN1CCN(c2ccc(-c3ccc(OCC4CC4)nc3F)cc2NC(=O)c2c[nH]c(=O)cc2C(F)(F)F)CC1
S. Cc1cc(=O)[nH]cc1C(=O)Nc1cc(-c2cc(CN3CCOCC3)ccc2F)ccc1N1CCN(C)CC1
T. C[C@@H]1CN(c2ccc(-c3cc(C(=O)NC4CCCCC4)ccc3F)cc2NC(=O)c2c[nH]c(=O)cc2C(F)(F)F)C[C@H](C)N1C
IN: Please list the entries, largest pKd first. Put the labels in the order asked and list them.
OUT: T, Q, R, P, S

I. CC1CN(c2ccc(-c3cc(C(=O)NC4CCCCC4)ccc3F)cc2NC(=O)c2c[nH]c(=O)cc2C(F)(F)F)CCN1C (stereo not drawn)
II. CN1CCN(c2ccc(-c3cc(CN4CCN(CC5CC5)CC4)ccc3F)cc2NC(=O)c2c[nH]c(=O)cc2C(F)(F)F)CC1
III. CN1CCN(c2ccc(-c3cc(CN4CCOC(C)(C)C4)ccc3F)cc2NC(=O)c2c[nH]c(=O)cc2C(F)(F)F)CC1
IV. Cc1cc(C(=O)Nc2cc(-c3cc(CN4CCOCC4)ccc3F)ccc2N2CCC(N(C)C)C2)cc(C)c1F (stereo not drawn)
IN: Provide the items ranked by increasing pKd. Put the labels in the order asked and list them.
OUT: IV, I, II, III
(IV: 6.50, I: 7.76, II: 8.14, III: 8.35)
